System: ryegrass, Italian (Italian ryegrass, Lolium multiflorum)
Test: Test C greenhouse herbicide test, pre- and postemergence
Format: in vivo
Details: Postemergence, 31 g ai/ha; 0 to 100 scale (0 no effect, 100 complete control)
recorded-metric: Ryegrass, Italian plant response rating
Give bare numbers.

Query: Fill in the blank: the reported Ryegrass, Italian plant response rating of Cc1nn(C)c(=O)c(-c2c(C)sc3ccc(Br)cc23)c1O is ____.
Reply: 60

Query: What does the record list as Ryegrass, Italian plant response rating for Cc1nn(C)c(=O)c(-c2ccc(F)c3ccccc23)c1O ?
Reply: 80

Query: I'd like to know its Ryegrass, Italian plant response rating. The compound in question is Cc1cc(C)c2ccccc2c1-c1c(O)c(C)nn(C)c1=O
Reply: 90

Okay, next one:
Query: Ryegrass, Italian plant response rating; subject: CCC(=O)Oc1c(C)nn(C)c(=O)c1-c1c(C)ccc2ccccc12
Reply: 55

====

Test system: ryegrass, Italian (Italian ryegrass, Lolium multiflorum)
Assay: Test A greenhouse herbicide test, pre- and postemergence
Assay type: in vivo
Details: Postemergence, 500 g ai/ha; visual rating after approx. 10 d, 0 to 100 scale (0 no effect, 100 complete control)
recorded-metric: Plant response rating, Ryegrass, Italian
Give bare numbers.

Here's what some known entries look like.
Query: Which Plant response rating, Ryegrass, Italian reading was recorded for the compound Cc1nn(C)c(=O)c(-c2c([N+](=O)[O-])ccc3ccccc23)c1OC(=O)C1CC1 [Compound 167] ?
Reply: 80

Query: Given the entry CC(=O)Oc1c(C)nn(C)c(=O)c1-c1c(C)sc2ccc(C(F)(F)F)cc12 [Compound 132] , report its measured Plant response rating, Ryegrass, Italian.
Reply: 100

Next:
Query: State the recorded Plant response rating, Ryegrass, Italian for this entry: COC(=O)Oc1c(OC)nn(C)c(=O)c1-c1c(C)sc2ccc(Cl)cc12 [Compound 112]
Reply: 100

====

Would you mind telling me the reported Plant response rating, Kochia of each entry?
Tested on: kochia (Kochia scoparia)
Assay: Test A greenhouse herbicide test, pre- and postemergence
Type: in vivo
Conditions: Preemergence, 500 g ai/ha; 0 to 100 scale where 0 is no effect and 100 is complete control
Give bare numbers.

Guide cases for Plant response rating, Kochia, answers given:
Query: Could you share which Plant response rating, Kochia value was measured for Cc1ccc2ccccc2c1-c1c(O)c(C(F)(F)F)nn(C)c1=O ?
Reply: 30

Query: For CC(=O)Oc1cnn(C)c(=O)c1-c1c(C)sc2ccccc12 , what is its reported Plant response rating, Kochia?
Reply: 0

Query: Using the record for Cc1nn(C)c(=O)c(-c2ccc(Cl)c3ccccc23)c1OS(=O)(=O)C(F)(F)F , report its Plant response rating, Kochia.
Reply: 40

Please state Plant response rating, Kochia for every molecule in the list that follows.
1. COC(=O)Oc1c(C)nn(C)c(=O)c1-c1ccc(Br)c2ccccc12
2. CC(=O)Oc1c(Cl)nn(C)c(=O)c1-c1c(C)sc2ccc(Cl)cc12
3. CCCC(=O)Oc1c(C)nn(C)c(=O)c1-c1c(C)sc2ccc(C)cc12
4. Cc1nn(C)c(=O)c(-c2c(Cl)n(C)c3ccccc23)c1O

Reply:
100
100
100
10

Fill in Plant response rating, Kochia for each of the 2 molecules listed.
1. Cc1nn(C)c(=O)c(-c2ccc(Br)c3ccccc23)c1O
2. CCC(=O)Oc1c(C)nn(C)c(=O)c1-c1c(C)ccc2ccccc12

Reply:
[90, 100]

====

Tested on: nutsedge, yellow (yellow nutsedge, Cyperus esculentus)
Assay: Test C greenhouse herbicide test, pre- and postemergence
Assay type: in vivo
Settings: Postemergence, 125 g ai/ha; scale 0 to 100, 0 is no effect, 100 is complete control
Could you please report measured Plant response rating, Nutsedge, Yellow for the items listed next?
Numbers only.

Query: I would be grateful if you could share the reported Plant response rating, Nutsedge, Yellow for CC(=O)Oc1c(C)nn(C)c(=O)c1-c1c(C)sc2ccc(Cl)cc12 .
Reply: 70

Query: Fill in the blank: the reported Plant response rating, Nutsedge, Yellow of Cc1nn(C)c(=O)c(-c2cccc3ccccc23)c1O is ____.
Reply: 30

Query: Report Plant response rating, Nutsedge, Yellow for CCCC(=O)Oc1c(C)nn(C)c(=O)c1-c1c(CC)sc2ccc(C)cc12 please.
Reply: 75

Attention now shifts to the item below.
Query: Can you share its Plant response rating, Nutsedge, Yellow? I mean this molecule: CC(=O)Oc1c(C)nn(C)c(=O)c1-c1c(C)cc(C)c2ccccc12
Reply: 75

====

Test system: radish, wild (wild radish, Raphanus raphanistrum)
Assay: Test D controlled growth environment herbicide test, pre- and postemergence
Assay type: in vivo
Conditions: Preemergence, 62 g ai/ha; scale 0 to 100 (0 no effect, 100 complete control)
The threshold is 70. Values of Plant response rating, Radish, Wild beneath it are tagged MET; values meeting or exceeding it are tagged NOT MET.

Please review the entries below; each comes with its answer.
Query: Please determine if Cc1nn(C)c(=O)c(-c2cccc3ccccc23)c1O [Compound 11] is below 70 in terms of Plant response rating, Radish, Wild.
Reply: MET

Query: Could you please tell me whether Plant response rating, Radish, Wild recorded for Cc1nn(C)c(=O)c(-c2ccc(F)c3ccccc23)c1O [Compound 41] is less than 70?
Reply: NOT MET

Moving on to another molecule below.
Query: A record lists CCc1sc2c(C)cc(C)cc2c1-c1c(O)c(C)nn(C)c1=O [Compound 57] . Is its Plant response rating, Radish, Wild below 70?
Reply: MET

====

Kindly state Barnyardgrass plant response rating for each of the entries shown.
Test system: barnyardgrass (Echinochloa crus-galli)
Experiment: Test C greenhouse herbicide test, pre- and postemergence
Type: in vivo
Conditions: postemergence, 62 g ai/ha; scale 0 to 100, 0 no effect, 100 complete control
Numbers only.

Examples with their reported Barnyardgrass plant response rating follow.
Query: Give its Barnyardgrass plant response rating value. Item: Cc1nn(C)c(=O)c(-c2ccc(F)c3ccccc23)c1O
Reply: 35

Query: I am curious: what Barnyardgrass plant response rating value has been reported for Cc1ccc2sc(Br)c(-c3c(O)c(C)nn(C)c3=O)c2c1 ?
Reply: 25

Query: What Barnyardgrass plant response rating value was documented for this molecule, Cc1cc(C)c2ccccc2c1-c1c(O)c(C)nn(C)c1=O ?
Reply: 45

Query: Field request: Barnyardgrass plant response rating | item: CCc1oc2ccc(C)cc2c1-c1c(O)c(C)nn(C)c1=O
Reply: 90

Query: Report Barnyardgrass plant response rating for CCc1sc2ccc(C)cc2c1-c1c(O)c(C)nn(C)c1=O please.
Reply: 55

Dear reader, for each entry below, please note its Barnyardgrass plant response rating.
1. CC(=O)Oc1c(C)nn(C)c(=O)c1-c1c(C)sc2ccc(Cl)cc12
2. Cc1ccc2ccccc2c1-c1c(O)c(C(F)(F)F)nn(C)c1=O
3. Cc1cc2ccccc2c(-c2c(O)c(C)nn(C)c2=O)c1C
4. CCc1ccc2ccccc2c1-c1c(O)c(C)nn(C)c1=O
5. CCC(=O)Oc1c(C)nn(C)c(=O)c1-c1ccc(F)c2ccccc12

Reply:
35
20
25
30
35

====

System: soybean (Glycine max)
Experiment: Test C greenhouse herbicide test, pre- and postemergence
Format: in vivo
Conditions: Postemergence, 250 g ai/ha; scale 0 to 100, 0 no effect, 100 complete control; 13 to 15 d
recorded-metric: Plant response rating, Soybean
Answers are plain numbers.

Please review the entries below; each comes with its answer.
Query: soybean (Glycine max) / Plant response rating, Soybean / CCC(=O)Oc1c(C)nn(C)c(=O)c1-c1ccc(Br)c2ccccc12 : value?
Reply: 85

Query: Please state recorded Plant response rating, Soybean (tested on soybean (Glycine max)) of CC(=O)Oc1c(C)nn(C)c(=O)c1-c1c(C)sc2ccc(Cl)cc12
Reply: 15

Query: Identify the measured Plant response rating, Soybean of Cn1nc(Br)c(O)c(-c2cccc3ccccc23)c1=O for soybean (Glycine max).
Reply: 0

Query: Form entry - test system: soybean (Glycine max); read-out: Plant response rating, Soybean; compound: Cc1nn(C)c(=O)c(-c2c(C)sc3ccc(C(F)(F)F)cc23)c1O
Reply: 0

Next, consider the following compound.
Query: Form: Entry = Cc1nn(C)c(=O)c(-c2ccc(Br)c3ccccc23)c1O | System = soybean (Glycine max) | Plant response rating, Soybean = ____
Reply: 10

====

Test system: oilseed rape (Brassica napus)
Test: Test D controlled growth environment herbicide test, pre- and postemergence
Type: in vivo
Conditions: postemergence, 62 g ai/ha; scale 0 to 100, 0 no effect, 100 complete control
Can you tell me Plant response rating, Oilseed Rape for the items I'm about to list?
Numbers only.

Solved entries:
Query: Fill in: Plant response rating, Oilseed Rape of Cc1ccc2ccccc2c1-c1c(O)c(Br)nn(C)c1=O [Compound 23] is ___
Reply: 60

Query: Bench note: what Plant response rating, Oilseed Rape did COC(=O)Oc1c(C)nn(C)c(=O)c1-c1c(C)sc2ccc(C)cc12 [Compound 80] show?
Reply: 55

Query: Quick one: Plant response rating, Oilseed Rape of Cc1nn(C)c(=O)c(-c2cccc3ccccc23)c1O [Compound 11] ?
Reply: 15

Query: I'd like to know its Plant response rating, Oilseed Rape. The compound in question is Cc1cc(C)c2ccccc2c1-c1c(O)c(C)nn(C)c1=O [Compound 21]
Reply: 100

Query: Param item = Cc1ccc2sc(Br)c(-c3c(O)c(C)nn(C)c3=O)c2c1 [Compound 79] ; retrieve measured Plant response rating, Oilseed Rape.
Reply: 5

Query: Plant response rating, Oilseed Rape for Cc1nn(C)c(=O)c(-c2c(C)sc3ccc(Br)cc23)c1O [Compound 22] ?
Reply: 30

Query: Report Plant response rating, Oilseed Rape for CCc1sc2c(C)cc(C)cc2c1-c1c(O)c(C)nn(C)c1=O [Compound 57] please.
Reply: 25

Now, please, on to the next compound.
Query: Dear colleague, I am looking for the recorded Plant response rating, Oilseed Rape of the following compound: Cc1ccc2ccccc2c1-c1c(OC(=O)OC(C)C)c(C)nn(C)c1=O [Compound 72]
Reply: 70

Attribution: patent US10597388B2
